Target: T1, DFNB31_3, Q9P202
T1 sequence (Q9P202 811-907, limits assumed, looked up): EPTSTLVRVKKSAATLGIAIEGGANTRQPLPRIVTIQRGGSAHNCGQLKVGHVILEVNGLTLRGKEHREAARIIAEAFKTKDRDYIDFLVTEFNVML
Test: holdup assay
Design: key: below the threshold = too weak to quantify, mostly under pKd 3.1 to 4
Details: plain residues with an end cap or a label only (N-terminal biotin on a linker: ado-ado)
quantity-name: pKd

AKPSRISTVV [IQSEC2, Q5JU85] ... below the threshold
VKPQVSESKL [ACOT8, O14734] ... 3.71
RRLPGKETMA [GRIK2, Q13002] ... below the threshold
CLREWCDAFL [BANF1, O75531] ... below the threshold

// provenance: paper PMC9482650
